System: LNCaP tumor-transplanted mouse
ASSAY: Internal radioactivity distribution using LNCaP tumor-transplanted mouse
Format: in vivo
ASSAY SETUP: 48 h after administration
READOUT: Pancreas (% ID/g)
One number for each entry, in % ID/g.

For O=C([O-])CN(Cc1cccc(C(=O)[O-])n1)C[C@H](Cc1ccc(NC(=O)CCCCCNC(=O)CCC(=O)NCCCC[C@H](NC(=O)N[C@@H](CCC(=O)O)C(=O)O)C(=O)O)cc1)N(CC(=O)[O-])Cc1cccc(C(=O)[O-])n1.[111In+3] [[^111In]In-Octapa-1, reference compound] the compound record lists Pancreas as 0.05
